For each of the binders below, state its Top FACS signal.
Molecular target: T1, human CD3 (human, UniProt P07766 23-207; P04234 22-171; P09693 23-182)
T1 construct: whole, on cells; also called hCD3; CD3 on Jurkat cells
T1 sequence (P07766 23-207, chain 1 of 3): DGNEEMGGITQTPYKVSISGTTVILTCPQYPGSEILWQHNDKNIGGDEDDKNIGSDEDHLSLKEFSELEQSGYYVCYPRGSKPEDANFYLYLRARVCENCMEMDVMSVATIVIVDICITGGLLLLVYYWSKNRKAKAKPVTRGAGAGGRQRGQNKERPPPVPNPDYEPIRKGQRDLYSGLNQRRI
T1 sequence (P04234 22-171, chain 2 of 3): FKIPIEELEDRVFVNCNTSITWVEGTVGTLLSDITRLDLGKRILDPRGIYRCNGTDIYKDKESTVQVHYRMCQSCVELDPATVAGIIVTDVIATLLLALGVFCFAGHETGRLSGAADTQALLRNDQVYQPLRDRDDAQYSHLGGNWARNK
T1 sequence (P09693 23-182, chain 3 of 3): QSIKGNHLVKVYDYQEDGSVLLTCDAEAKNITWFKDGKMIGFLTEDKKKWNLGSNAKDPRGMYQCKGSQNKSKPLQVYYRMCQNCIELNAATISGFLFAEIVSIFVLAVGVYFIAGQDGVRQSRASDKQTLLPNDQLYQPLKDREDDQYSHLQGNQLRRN
Test: FACS on Jurkat cells
Kindly provide the number alone.

Lookup result for hu40E9-L2H1 (antibody, V domains shown, humanized 40-C12-C10-E9) VH: EVQLVQSGAEVKKPGSSVKVSCKASGGTFSSYVIHWVRQAPGQGLEWMGYINPYNDVIKYNEKFKGRVTITADKSTSTAYMELSSLRSEDTAVYYCARDSYYSYDGFAYWGQGTLVTVSS VL: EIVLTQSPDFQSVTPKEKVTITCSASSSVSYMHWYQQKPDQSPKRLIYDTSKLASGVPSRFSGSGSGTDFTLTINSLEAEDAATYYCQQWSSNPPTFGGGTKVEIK ; measured Top FACS signal: 892

Lookup result for hu40E9-L3H1 (antibody, V domains shown, humanized 40-C12-C10-E9) VH: EVQLVQSGAEVKKPGSSVKVSCKASGGTFSSYVIHWVRQAPGQGLEWMGYINPYNDVIKYNEKFKGRVTITADKSTSTAYMELSSLRSEDTAVYYCARDSYYSYDGFAYWGQGTLVTVSS VL: EIVLTQSPDFQSVTPKEKVTITCSASSSVSYMHWYQQKPDQSPKRWIYDTSKLASGVPSRFSGSGSGTDYTLTINSLEAEDAATYYCQQWSSNPPTFGGGTKVEIK ; measured Top FACS signal: 1250

Lookup result for hu40E9-L2H3-N93W.L (antibody, V domains shown) VH: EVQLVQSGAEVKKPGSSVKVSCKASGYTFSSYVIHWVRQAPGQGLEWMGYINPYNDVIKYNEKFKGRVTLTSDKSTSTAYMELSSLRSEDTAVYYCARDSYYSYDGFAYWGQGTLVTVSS VL: EIVLTQSPDFQSVTPKEKVTITCSASSSVSYMHWYQQKPDQSPKRLIYDTSKLASGVPSRFSGSGSGTDFTLTINSLEAEDAATYYCQQWSSWPPTFGGGTKVEIK ; measured Top FACS signal: 1210
